Data provenance is the supplement of paper PMC6555819.

Tested on: RXRa DBDmut IVT, anti-RXR (DBD mutation: RXRa K156A/R161A, NR concentration 90 nM)
ASSAY: PBM binding z-score (relative to random genomic background probes); higher = stronger binding; sequences stand for … in GC…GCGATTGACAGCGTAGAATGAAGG
READOUT: PBM binding z-score
Numbers only.

MONOMER_SEQUENCE | TEST_SYSTEM | REPORTED_MEASUREMENT
CCTAGTTGGACAGGAGGTCACACACCGGATATGA | RXRa DBDmut IVT, anti-RXR (DBD mutation: RXRa K156A/R161A, NR concentration 90 nM) | 1.02

Please state, for each entry, its recorded PBM binding z-score.
1. ACAGACAGGTGAGTGAAGGTAAGTCAGCTGGACG
2. TAGCCTAGGTCATGCGGACCAGTATAGTGTCGGC
3. ACTATTAGTTGACTTAGGGCTACCGATACGACGC

1: -0.68; 2: 0.668; 3: 0.644

* * *

Would you kindly list PBM binding z-score for each of these sequences?
Tested on: PPARa:RXRa (NR concentration 270 nM, RXRa partner concentration 90 nM)
ASSAY: PBM binding z-score (relative to random genomic background probes); higher = stronger binding; sequences stand for … in GC…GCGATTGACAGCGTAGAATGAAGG

Below, 5 sequences whose answers are already recorded.
MONOMER_SEQUENCE | PBM binding z-score
CCGAGTAGGTTATGGGGTATTCAGGCAACGGTGA | 1.81
TAGCGTAGGTCATGCGGGCCAGTATAGTGTCGGC | 3.68
CAAACTAGGTCACAAAGGTCAAAGTCCGTGCGTA | 6.49
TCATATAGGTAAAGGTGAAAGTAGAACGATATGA | 3.29
ATATGTAGGTTATCGGGTCATTCTGTTTGCGCAT | 4.93

Please state, for each entry, its recorded PBM binding z-score.
1. TCTGCTAGGTCAATTGGTCAGCTAACGAGCTGCC
2. CAAACTAGGTCACAGGTCAAAGTCGAGCCAACCA

[3.04, 6.88]

Please state, for each entry, its recorded PBM binding z-score.
1. AGAATGAGGTTATTAAGATCAGGGAATTGCGGTC
2. CCTACTGGTCCAAAAAGGTCATTGATGCCGATAA
3. CAAACTAGGTCAAAGGTTAAAGTCGAGCCAACCA
4. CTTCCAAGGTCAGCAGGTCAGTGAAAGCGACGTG
5. TAGCCTACGTCATTGGGCCAGTATAGTACGCATC

2.39
4.72
7.61
4.87
-0.37

Please state, for each entry, its recorded PBM binding z-score.
1. TCGAGTAGGTTACCAATGGGGCATTCATCTTTCT
2. CGAACTAGGTCAAGGACAGTGAATCTCCGCACGC

1: 1.23; 2: 4.64

Please state, for each entry, its recorded PBM binding z-score.
1. TTACCAAGGTGAGCTGAGGTCGTTGGTCCAACTC
2. AGGATGAGGTTATTAAGATCAGGGAATTGCGGTC
3. GCTAGCAGGCCATTTGGGTCACTTAATGACGGGC
4. CCTAGTGGGCCACGAAAGGTCATTGATTCAGTGA
5. ATCTCTAGGTAAAAGTTCAGTTAATCCCGAGGAT

1: 1.67; 2: 2.29; 3: 1.16; 4: 4.7; 5: 4.56

Please state, for each entry, its recorded PBM binding z-score.
1. ATACCAAGGTGATCGTGAGGTCGCTGATACTAAC
2. TCTTGTAGATCCAAGGTTAAGAAAGCCGAAGCCT
3. TGAATGAGGTTATAACATCAGGGAACGTTGCAAA
4. ATCTCGAGGTAACCAAGTTCAGTGAATGCCGAAC
5. GCGACTGGGGCATCAGCAGGTTGCCATAACTTAA
6. CAAACTAGGTCAGGAGGTCAAAGTCCGCTTCCCG
7. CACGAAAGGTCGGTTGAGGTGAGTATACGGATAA

1: 1.15; 2: 1.65; 3: 2.52; 4: 1.25; 5: 0.348; 6: 5.91; 7: 3

Please state, for each entry, its recorded PBM binding z-score.
1. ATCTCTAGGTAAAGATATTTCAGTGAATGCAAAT
2. TCAGACAGGTGAAGGTATCTCAGGTACGCAGTCG
3. CCTGCTAGGTCATGTTCAGCTAATCTACAGTATG
4. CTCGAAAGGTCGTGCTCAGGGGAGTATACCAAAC
5. CCTAACAGGCCAGGGTCACTCAAGCATTTCGCTT

[0.352, 0.944, 2.69, 4.69, 3.2]

Please state, for each entry, its recorded PBM binding z-score.
1. CCAGACAGGTGAGAACGTAACTCAGCCTCGATTA
2. TCATATACGTAAAAGGTGAAAGTCGGTGTGGTAA
3. AGAACGAAGGCACGCTGAGTTGATAGCAGAGTAG

1. 0.136
2. 2.81
3. -0.367

Please state, for each entry, its recorded PBM binding z-score.
1. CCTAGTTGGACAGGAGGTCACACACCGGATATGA
2. TCATATATGTAAAGGTGAAAGTCGAACGATATGA
3. TCTAGCAGGCCAGAGGGTCACTCCAGAGGTACGG

[4.11, 2.68, 1.91]

* * *

Tested on: PPARg:RXRa 270nM:90nM, anti-RXR (NR concentration 270 nM, RXRa partner concentration 90 nM)
ASSAY: PBM binding z-score (relative to random genomic background probes); higher = stronger binding; sequences stand for … in GC…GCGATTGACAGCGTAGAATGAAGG
Would you kindly list PBM binding z-score for each of these sequences?
One number for each entry.

MONOMER_SEQUENCE | PBM binding z-score
CTCGAAAGGTCGGTTGAGGCGAGTATACGGATAA | 0.752

Please state, for each entry, its recorded PBM binding z-score.
1. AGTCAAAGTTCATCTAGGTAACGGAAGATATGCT
2. TCTTGTAGATCAACAGGAGGTTAAGTAAGATCGA
3. AGTCAAAGTTCATCTAGGTTACGTAAGATATGCT
4. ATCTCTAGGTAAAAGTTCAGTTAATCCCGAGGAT
5. TTGCCAAGGTGAGCTGAGGTCGTTGATCCAACTC

6.48
1.22
6.6
7.9
0.302

* * *

System: THRa homodimer (NR concentration 90 nM)
ASSAY: PBM binding z-score (relative to random genomic background probes); higher = stronger binding; sequences stand for … in GC…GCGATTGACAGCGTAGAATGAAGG
Label Met when PBM binding z-score >= 0.6; otherwise Not met.

MONOMER_SEQUENCE | TEST_SYSTEM | ASSIGNED_LABEL
TGAATGAGGTTATAAGATCCGGGAACGTTGCAAA | THRa homodimer (NR concentration 90 nM) | Not met
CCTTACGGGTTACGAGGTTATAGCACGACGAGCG | THRa homodimer (NR concentration 90 nM) | Met
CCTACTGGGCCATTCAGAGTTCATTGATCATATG | THRa homodimer (NR concentration 90 nM) | Not met

Record TCTTGTAGATCAACAGGAGGTTTAGAAAGATCGA ; criterion: PBM binding z-score no lower than 0.6. Met?
Not met

Record CCTACTGGGCCACGAAAGGTCACTGATTCAGTGA ; criterion: PBM binding z-score no lower than 0.6. Met?
Met

Record TCGAGTAGGGTAGGGGCATTCAGAATGGCGTCGA ; criterion: PBM binding z-score no lower than 0.6. Met?
Met

* * *

System: PPARg:RXRa (NR concentration 180 nM, RXRa partner concentration 90 nM)
ASSAY: PBM binding z-score (relative to random genomic background probes); higher = stronger binding; sequences stand for … in GC…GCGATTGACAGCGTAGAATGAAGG
Label True when PBM binding z-score >= 1; otherwise False.

The examples below pair each entry with its known result.
MONOMER_SEQUENCE | ASSIGNED_LABEL
TCTATTCGTTGAAGGGCAACCGACGAGTCCGTTT | False
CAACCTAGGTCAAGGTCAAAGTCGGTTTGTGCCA | True
ATATGTATGTTACATCCGGGTCATTCAGGCTATG | True

Record AGTCACAGTTCACTAGGTAACGTAAGATTCAGCT ; criterion: PBM binding z-score no lower than 1. Met?
True

Record TAGCCTATGTCATTGGGCCAGTATAGTACGCATC ; criterion: PBM binding z-score no lower than 1. Met?
False

Record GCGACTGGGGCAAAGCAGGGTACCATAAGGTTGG ; criterion: PBM binding z-score no lower than 1. Met?
False

Record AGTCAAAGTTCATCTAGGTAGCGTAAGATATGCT ; criterion: PBM binding z-score no lower than 1. Met?
True

Record TCTAGTAGGTTAGTCGGGGCATTCAGCCAACATA ; criterion: PBM binding z-score no lower than 1. Met?
False
